Target: Serine/threonine-protein kinase B-raf (Homo sapiens, UniProt P15056, V600E)
Sequence (P15056 2-766 V600E limits assumed): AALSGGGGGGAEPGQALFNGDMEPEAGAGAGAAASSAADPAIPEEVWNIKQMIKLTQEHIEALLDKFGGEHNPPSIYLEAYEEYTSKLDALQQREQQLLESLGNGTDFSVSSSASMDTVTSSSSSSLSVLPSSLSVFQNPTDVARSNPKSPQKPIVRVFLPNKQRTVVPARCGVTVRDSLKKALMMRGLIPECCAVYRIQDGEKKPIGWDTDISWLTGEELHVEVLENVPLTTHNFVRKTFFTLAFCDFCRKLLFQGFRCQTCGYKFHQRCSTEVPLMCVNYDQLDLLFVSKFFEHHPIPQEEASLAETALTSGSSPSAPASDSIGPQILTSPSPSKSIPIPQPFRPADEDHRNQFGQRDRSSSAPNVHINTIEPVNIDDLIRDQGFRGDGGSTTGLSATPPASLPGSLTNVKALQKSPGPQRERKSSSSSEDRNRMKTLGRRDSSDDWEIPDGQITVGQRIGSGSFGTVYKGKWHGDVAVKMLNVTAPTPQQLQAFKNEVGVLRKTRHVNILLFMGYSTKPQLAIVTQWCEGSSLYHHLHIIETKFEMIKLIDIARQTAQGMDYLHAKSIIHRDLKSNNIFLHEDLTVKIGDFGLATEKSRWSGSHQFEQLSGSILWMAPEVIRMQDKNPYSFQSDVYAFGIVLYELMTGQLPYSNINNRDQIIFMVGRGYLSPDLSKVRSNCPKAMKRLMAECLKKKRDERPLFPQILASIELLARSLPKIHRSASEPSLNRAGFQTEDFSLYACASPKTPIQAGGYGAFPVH
Test: Inhibition of His6-tagged full length BRAF V600E mutant (2 to 766 residues) (unknown origin) expressed in Baculovirus expression system by BRAMA method
parameter: IC50
Answer as a quantity: numeral, then unit.

Use the examples below as a reference point.
Data point: CNS(=O)(=O)c1cccc(Nc2ncnc3[nH]c(-c4cccc(C(F)(F)F)c4)cc23)c1 ; IC50 = 6 nM

Data point: CNS(=O)(=O)c1ccc(N(C)C)c(Nc2ncnc3[nH]ccc23)c1 ; IC50 = 6 nM

Data point: CNS(=O)(=O)c1cccc(Nc2ncnc3[nH]cnc23)c1 ; IC50 = 32 nM

Data point: CNS(=O)(=O)c1ccc(N(C)C)c(Nc2ncnc3[nH]c(Br)cc23)c1 ; IC50 = 6.3 nM

Data point: CNS(=O)(=O)c1ccc(N2CCOCC2)c(Nc2ncnc3[nH]c(Br)cc23)c1 ; IC50 = 8 nM

Others:
Data point: CNS(=O)(=O)c1cccc(Nc2ncnc3[nH]cc(F)c23)c1 ; IC50 = 79 nM
